tested on: estrogen-related receptor alpha (ERRalpha) with PGC-1alpha coactivator, human; test: qHTS assay to identify small molecule antagonists of the estrogen related receptor signaling pathway with the pleiotropic PPARgamma coactivator (PGC) (AID 1224821); conditions: ERR/PGC reporter cell line, luciferase, antagonist mode; series mostly up to 46.1 µM;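 further: lower luminescence signal means antagonism of PGC/ERR signalling; nearly all actives have a fitted effect of over 50% in size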
Inconclusive results are not listed. Activity calls are given as the source filed them. The call rests on the fitted dose curve.
The reply should name one outcome from active, inactive

Before answering, review these 5 worked examples.
| molecule | category.label |
| --- | --- |
| COc1ccc2[nH]c3c(c2c1)CCNC3 | inactive |
| Oc1ccc2c3c1O[C@H]1c4[nH]c5c(c4C[C@@]4(O)[C@@H](C2)N(CC2CC2)CC[C@]314)C[C@@]1(O)[C@H]2Cc3ccc(O)c4c3[C@@]1(CCN2CC1CC1)[C@H]5O4 | inactive |
| CC(N)Cc1c[nH]c2ccc(OCc3cccs3)cc12 (stereo not drawn) | inactive |
| CC(C)Oc1cccnc1N(C)C1CCN(Cc2ccccc2)CC1 | inactive |
| CNCCc1ccc(O)c(O)c1 | inactive |

# fetch the recorded call for CC(C)(C)c1o[nH]c(=O)c1CC(N)C(=O)O (stereo not drawn) here
inactive

# fetch the recorded call for Nc1ncnc2c1ncn2[C@@H]1O[C@H](COP(=O)(O)CP(=O)(O)OP(=O)(O)O)C(O)[C@H]1O (stereo partly drawn) here
inactive

# fetch the recorded call for CC(Cc1ccc(OCC(=O)O)cc1)NCC(O)c1cccc(Cl)c1 (stereo not drawn) here
inactive

# fetch the recorded call for O=C(O)[C@@H]1CCN1 here
inactive

# fetch the recorded call for CN(C(=O)Cc1ccc(Cl)c(Cl)c1)C(CN1CCCC1)c1cccc(OCC(=O)O)c1 (stereo not drawn) here
inactive

# fetch the recorded call for N[C@@]1(C(=O)O)CC[C@@H](C(=O)O)C1 here
inactive

# fetch the recorded call for CN1CC[C@@]2(C)c3cc(OC(=O)Nc4ccccc4)ccc3N(C)[C@@H]12 here
inactive

Attribution: PubChem BioAssay (Tox21)
